Reference source for all entries: paper PMC12592400

Test system: E. faecium strains with polC mutations (A1281T, F1276I, F1276L, F1276S)
Assay: Cross-resistance MIC of reduced susceptible E. faecium strains
Format: cell-based, Enterococcus faecium
Settings: Enterococcus faecium, read-out: Measured MIC, polC F1276I, strain Efa037, selected on 4 mg/L ACX-641
The entries below are paired with their reported MIC.
assay_metric: MIC

* O=c1[nH]c(NCc2ccc(Cl)c(Cl)c2)nc2ncn(CCN3CCOCC3)c12 [IBZ] | > 64 µg/mL
* O=c1[nH]c(NCc2ccc3c(c2)OC(F)(F)O3)nc2c(F)nn(CCO)c12 [ACX-801] | > 64 µg/mL
* CN(C)c1cc(CNCC(C)(C)C)c(O)c2c1C[C@H]1C[C@H]3[C@H](N(C)C)C(O)=C(C(N)=O)C(=O)[C@@]3(O)C(O)=C1C2=O [OMC, omadacycline] | ≤ 0.06 µg/mL
